Tested on: MALME-3M melanoma
experiment: NCI tumour cell line growth inhibition, 48 h
In this section, each of the compounds is paired with its reported TGI.

{"compound": "NNC(=S)Nc1cccc(Cl)c1", "TGI": "> 100 µM"}
{"compound": "COc1cccc2cc(C(=O)Nc3ccccn3)c(=N)oc12", "TGI": "> 100 µM"}
{"compound": "CCCCCCCCCCCCCC(=O)OCC1OC(n2cc(F)c(=O)[nH]c2=O)C(N)C(OC(=O)CCCCCCCCCCCCC)C1O (stereo not given)", "TGI": "> 100 µM"}
{"compound": "Cc1cn2c(/C=C3/C(=O)Nc4ccc(F)cc43)c(C)nc2s1", "TGI": "> 50 µM"}
{"compound": "COc1ccc2c(c1)C(=O)c1c-2n(CCCN)c(=O)c2cc(OC)c(OC)cc12", "TGI": "3 µM"}
{"compound": "CCC1=NC(C(F)(F)F)(C(F)(F)F)N=C(/N=C(/N)N(C)C(C(C)C)P(=O)(OC(C)C)OC(C)C)O1 (stereo not given)", "TGI": "> 100 µM"}
{"compound": "O=C1C(Cl)C(c2cc3cc(Br)ccc3nc2Cl)N1c1c(Cl)cccc1Cl (stereo not given)", "TGI": "> 25 µM"}
{"compound": "O=C1[C@H](Cl)[C@H]2c3cc4ccccc4nc3Oc3ccccc3N12", "TGI": "> 100 µM"}
{"compound": "CCOC(=O)c1csc(NC(=O)COc2cccc(/C=C3\\CSc4ccccc4C3=O)c2)n1", "TGI": "1.22 µM"}
{"compound": "O=C(O)CCC(NC(=O)c1ccc(CNc2nc3ccccc3nc2C(=O)O)cc1)C(=O)O (stereo not given)", "TGI": "> 100 µM"}

* * *

Tested on: SR leukemia
experiment: NCI tumour cell line growth inhibition, 48 h
Listed below: TGI values for each entry.
endpointName: TGI (µM)

{"compound": "Cc1c(-c2ccccc2)c(C#N)c2nnn(-c3cccc(Cl)c3)c(=O)n12", "endpointName": "TGI", "relationOperator": ">", "result": 100}
{"compound": "CCN(CC)CC(C)(C)C(=O)/C=C/c1ccc(/C=C/C(=O)C(C)(C)CN(CC)CC)cc1", "endpointName": "TGI", "relationOperator": "=", "result": 0.758}
{"compound": "CC1OC(O[C@H]2CC[C@]3(C=O)[C@H]4CC[C@]5(C)[C@H](C6=CC(=O)OC6)CC[C@]5(O)[C@@H]4C=C[C@]3(O)C2)CC(O)C1O (some centres undefined)", "endpointName": "TGI", "relationOperator": "=", "result": 0.682}
{"compound": "c1ccc(C2=Nc3cccc4cccc(c34)N2)cc1", "endpointName": "TGI", "relationOperator": "=", "result": 52.9}
{"compound": "CC(=O)NC(CCCCN(Cc1ccccc1)C(=O)N(CCCl)N=O)C(=O)NCc1ccccc1 (centres undefined)", "endpointName": "TGI", "relationOperator": "=", "result": 47.6}
{"compound": "CCN(CC)CCCC(C)Nc1cc(/C=C/c2ccc(Cl)cc2)nc2cc(N(C)C)ccc12 (centres undefined)", "endpointName": "TGI", "relationOperator": "=", "result": 2.85}
{"compound": "Cc1cc(C)n(CN(Cn2nc(C)cc2C)c2ccccc2)n1", "endpointName": "TGI", "relationOperator": "=", "result": 14.9}
{"compound": "O=C(Nc1nc(-c2ccc(Cl)cc2)nc2c1sc(=S)n2-c1ccccc1)C(F)(F)F", "endpointName": "TGI", "relationOperator": "=", "result": 20.1}
{"compound": "OC(c1ccccc1)C(F)(F)c1nc2ccccc2o1 (centres undefined)", "endpointName": "TGI", "relationOperator": ">", "result": 100}

Where these numbers come from: PubChem BioAssay (NCI)
